Recorded values, source the Human Domainome abundance scans (Beltran et al. 2025).

I'd appreciate it if you could supply abundance fitness values for the items below.
B1: Tyrosine-protein kinase Lck, residues 63 to 120; numbered along this chain, P06239 (parent)
chain: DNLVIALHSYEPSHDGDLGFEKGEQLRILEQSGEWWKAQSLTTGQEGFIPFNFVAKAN

Variants of: B1
Assay: abundance fitness (aPCA) (normalised: wild type 0, dead -1); higher = more abundant; growth selection in yeast, the domain comes from the species named
Settings: Homo sapiens
The reply should be a number, written without any unit.

Reported abundance fitness ( T43N ) = -0.277

Reported abundance fitness ( D1G ) = -0.115

Reported abundance fitness ( L3A ) = -0.79

Reported abundance fitness ( A57N ) = -0.614

Reported abundance fitness ( E30F ) = -0.45

Reported abundance fitness ( Y10W ) = -0.019

Reported abundance fitness ( L29Y ) = -0.227

Reported abundance fitness ( Q45F ) = -0.303

Reported abundance fitness ( S13H ) = -0.174

Reported abundance fitness ( K37S ) = -0.321

Reported abundance fitness ( E30P ) = -0.752

Reported abundance fitness ( L29I ) = -0.339

Reported abundance fitness ( F51Y ) = -0.037

Reported abundance fitness ( E11P ) = -0.409

Reported abundance fitness ( N52K ) = 0.023

Reported abundance fitness ( T42A ) = -0.035

Reported abundance fitness ( I49N ) = -0.828

Reported abundance fitness ( P50M ) = -1.03

Reported abundance fitness ( A6H ) = -0.756

Reported abundance fitness ( A38Q ) = -0.891

Reported abundance fitness ( H14A ) = 0.027

Reported abundance fitness ( K22N ) = -0.777
